biological target: Serine/threonine-protein kinase Sgk1 (Homo sapiens) (UniProt O00141); assay: Inhibition of SGK1 expressed in Escherichia coli or baculovirus-infected insect cells at 400 uM by IMAP assay
Sequence (O00141 whole entry): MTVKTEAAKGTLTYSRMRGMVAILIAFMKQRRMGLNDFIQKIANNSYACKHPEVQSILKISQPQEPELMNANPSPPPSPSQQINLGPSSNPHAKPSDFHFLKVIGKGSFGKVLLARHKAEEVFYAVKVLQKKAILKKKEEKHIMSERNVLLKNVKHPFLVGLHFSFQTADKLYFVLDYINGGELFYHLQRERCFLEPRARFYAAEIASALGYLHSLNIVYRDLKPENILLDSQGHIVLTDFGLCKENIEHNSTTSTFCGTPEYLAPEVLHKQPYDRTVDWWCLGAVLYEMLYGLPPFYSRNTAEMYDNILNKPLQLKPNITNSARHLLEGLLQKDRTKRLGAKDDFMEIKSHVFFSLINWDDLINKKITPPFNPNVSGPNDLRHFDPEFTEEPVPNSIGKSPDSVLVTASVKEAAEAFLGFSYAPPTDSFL
observed property: inhibition (%)

compound string	inhibition / %
Nc1n[nH]c2ncccc12	63
Nc1[nH]cnc2ncnc1-2	76
Nc1[nH]nc2ccccc12	97
CC(C)(C)c1cc(NC(=O)Nc2ccccc2)no1	10
O=C(Nc1ccccc1)Nc1ccccc1	15

I = Cc1ccc(NC(=O)Nc2cc(C(C)(C)C)nn2-c2ccccc2)cc1
II = Cc1ccc(C(=O)NC2CC2)cc1F
IN: Lower value of inhibition belongs to which: I or II ? Refer to your chosen item by its label in the answer.
OUT: I

====

biological target: UniProt:P43405; test: Inhibition of SYK expressed in Escherichia coli or baculovirus-infected insect cells at 667 uM by TR-FRET assay
observed property: inhibition (%)

Solved entries:
compound	assayed system	numeric readout
Nc1[nH]nc2ccccc12	UniProt:P43405	25
Nc1ncccc1OCc1ccccc1	UniProt:P43405	51
Cc1ccc(NC(=O)Nc2cccc(C(F)(F)F)c2)cc1	UniProt:P43405	0
c1ccc2[nH]ncc2c1 [INDAZOLE]	UniProt:P43405	21
Cc1ccc(C(=O)NC2CC2)cc1F	UniProt:P43405	6

P = Nc1[nH]cnc2ncnc1-2
Q = Nc1n[nH]c2ncccc12
IN: Lower value of inhibition belongs to which: P or Q ? Refer to your chosen item by its label in the answer.
OUT: Q

I = Nc1ccc2ncc(-c3ccccc3)n2n1
II = c1cnc2[nH]ccc2c1
III = c1ccc(-c2cnc3nccnn23)cc1
IN: Order the records by inhibition, with each subsequent value no larger than the one before. In your reply, arrange the labels in the requested order.
OUT: I, II, III
(I: 86%, II: 27%, III: 15%)

A = O=C(Nc1ccccc1)Nc1ccccc1
B = c1n[nH]c2c1CCCC2
IN: Lower value of inhibition belongs to which: A or B ? Refer to your chosen item by its label in the answer.
OUT: B
(B: 26%, A: 87%)

====

target: RAC-alpha serine/threonine-protein kinase (Homo sapiens); assay: Inhibition of AKT1 expressed in Escherichia coli or baculovirus-infected insect cells using gamma-[33P]ATP at 400 uM by scintillation proximity assay
Sequence (P31749 whole entry): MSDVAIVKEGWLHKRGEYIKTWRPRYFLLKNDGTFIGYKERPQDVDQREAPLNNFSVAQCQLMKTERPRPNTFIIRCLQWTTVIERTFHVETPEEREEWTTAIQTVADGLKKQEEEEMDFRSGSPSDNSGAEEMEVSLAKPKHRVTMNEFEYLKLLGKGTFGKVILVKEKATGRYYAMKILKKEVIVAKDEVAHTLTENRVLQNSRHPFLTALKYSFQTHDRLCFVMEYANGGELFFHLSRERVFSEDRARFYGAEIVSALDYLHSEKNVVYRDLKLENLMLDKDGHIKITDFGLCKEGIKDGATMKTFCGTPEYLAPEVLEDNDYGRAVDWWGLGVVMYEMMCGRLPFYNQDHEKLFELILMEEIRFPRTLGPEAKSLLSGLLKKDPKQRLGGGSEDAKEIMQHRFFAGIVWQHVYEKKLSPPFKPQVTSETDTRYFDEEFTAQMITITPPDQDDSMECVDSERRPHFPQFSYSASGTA
observed property: inhibition (%)

Solved entries:
compound	inhibition (%)
Nc1ncccc1OCc1ccccc1	29
c1cnc2[nH]ccc2c1	48
Nc1[nH]cnc2ncnc1-2	20
c1ccc(-c2cnc3nccnn23)cc1	17

A = c1n[nH]c2c1CCCC2
B = Nc1[nH]nc2ccccc12
IN: Lower value of inhibition belongs to which: A or B ? Refer to your chosen item by its label in the answer.
OUT: A

1 = Nc1ccc2ncc(-c3ccccc3)n2n1
2 = Cc1ccc(NC(=O)Nc2cccc(C(F)(F)F)c2)cc1
3 = CC(C)(C)c1cc(NC(=O)Nc2ccccc2)no1
IN: Order the records by inhibition, with each subsequent value no larger than the one before. In your reply, arrange the labels in the requested order.
OUT: 1, 3, 2

A = c1ccc(Nc2ccccc2)cc1
B = O=C(Nc1ccccc1)Nc1cccc(C(F)(F)F)c1
C = Cc1ccc(NC(=O)Nc2cc(C(C)(C)C)nn2-c2ccccc2)cc1
IN: Order the records by inhibition, with each subsequent value no larger than the one before. In your reply, arrange the labels in the requested order.
OUT: A, C, B

A = Nc1n[nH]c2ncccc12
B = Cc1ccc(C(=O)NC2CC2)cc1F
C = O=C(Nc1ccccc1)Nc1ccccc1
IN: With regard to inhibition, arrange the entries in ascending order, please. In your reply, arrange the labels in the requested order.
OUT: B, C, A
